Each recorded value in this set is attributed to the supplement of paper PMC9170038.

- Test system: MS2 coat protein
- assayProcedure: apparent KD of MS2 coat protein; designed switch direction (-1 OFF switch, 1 ON switch): -1; higher = weaker reporter binding
- testSettings: input ligand: none
Rule: apparent KD of MS2 coat protein of 30 nM or more gives y; anything lower gives n.

Consider the following illustrative entries.
ACAUGAGGAUCACCCAUGUCGGGCUGGUCCGCUCCGGCUGUUGAGGAUAUAGCCCGGUAUCCGCGCUAGAAGGUGAGGGCCGGC [Aenatbe mod 29] (Eterna round: R96, puzzle: Exclusion NG 3)    y
UCAGUUAUGCGAGGAUAUCGACCUUUCCUCUUAACAUGAGGAUCACCCAUGUGCUAAUCCUUCAACGAGAAGGCGCUCAAACUC [JR_ExcNG2_Sub070] (Eterna round: R96, puzzle: Exclusion NG 2)    y

**Query** Test whether the sequence UAAUUGUGAGGAUAUUCGUUGUUCUCGGAGACGAGAAUAACGGAGAAGGCACAUGAGGAUCACCCAUGUUCCUU [Mat - Exclusion 4 - JL Mod - D13] (Eterna round: R97, puzzle: Exclusion 4) records apparent KD of MS2 coat protein of 30 nM or higher.
**Result** n

**Query** AGGUGCCUCUGGAAACAUGAGGAUCACCCAUGUUGAGUUAGCGAGGAUAUCGGUAACCAUUGUUAUGAGAAGGCGCAAACCAGA [Ex NG3 #38] (Eterna round: R96, puzzle: Exclusion NG 3) , same question.
**Result** n

**Query** UUGGUUGUGGUAGGAUAUCCGUUGGAAACUGUUGGAGAAGGACCACAGUCACUGGGUCUUUGUUUGGUGGAGUGGAAGAACCAU [pwkr exNG1 F6.18] (Eterna round: R96, puzzle: Exclusion NG 1) , same question.
**Result** y
